- STUDY TARGET: muscarinic cholinergic receptor (high affinity agonist conformation)
- EXPERIMENTAL DETAILS: [3H]-cis-Methyldioxolane (3H-CD) Binding Assay (High Affinity), cerebral cortex
- STUDY CONDITIONS: 3H-CD 1.0 nM, rat cerebral cortex, 25° C., 120 minutes, pH 7.4; read-out: Ki, ^3 H-CD (ctx)
PROPERTY NAME: Ki (µM)

                              sample_smiles  property_name  inequality_sign  assay_result
0            Cc1nsc(N2C[C@@H]3C[C@H]2CN3)n1             Ki                =            13
1             c1nsc(N2C[C@H]3C[C@@H]2CN3)n1             Ki                =           0.3
2  CN1C[C@@H]2C[C@H]1CN2c1ccc([N+](=O)[O-])s1             Ki                =           6.8
3             CN1C[C@@H]2C[C@H]1CN2c1cnccn1             Ki                =           0.4
4           CN1C[C@@H]2C[C@H]1CN2c1nccnc1Cl             Ki                =           0.9
5         COc1cncc(N2C[C@@H]3C[C@H]2CN3C)n1             Ki                =           0.3
6            Cc1nccnc1N1C[C@@H]2C[C@H]1CN2C             Ki                =           1.7
7             c1nsc(N2C[C@@H]3C[C@H]2CN3)n1             Ki                =          29.5
8  CC(C)(C)OC(=O)N1C[C@H]2C[C@@H]1CN2c1cnccn1             Ki                >          1000
9             CN1C[C@H]2C[C@@H]1CN2c1cnccn1             Ki                =           6.4

meta.source: patent US5478939A
